The origin of these recorded values is patent US20150274828A1.

biological target: T1, EGFR-Fc fusion protein (recombinant EGFR extracellular region-Fc) (human, UniProt P00533 25-645); assay: BLI ForteBio QKe, biotinylated EGFR-Fc on streptavidin sensor, antibody 20 nM; fold reduction of affinity, parent Ame55 = 1;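 note: parent antibody affinity set as 1, with values giving the fold drop in affinity of each mutant antibody relative to that parent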
T1 construct: extracellular domain; not shown: Fc part supplied by vector pABG1
quantity kind: Affinity change (fold)
Provide the reading as a plain figure in fold.

Enquiry: So what does the record say about Affinity change for Ame55 mutant, light chain 88Q (antibody, V domains shown, Mutant of Ame55) VH: EVQLVQSGAEVKKPGESLKISCKGSGYSFTSYWIGWVRQMPGKGLEWMGIIYPGDSDTRYSPSFQGQVTISADKSISTAYLQWSSLKASDTAMYYCARGIIYPSNVAVWGQGTLVTVSS VL: SYELTQPPSVSVAPGQTARITCSGDALGDKYASWYQQKPGQAPVLVIYEDSKRPSGIPERFSGSNSGNTATLTISGTQAEDEADYYCQVWDGDWGMPVFGGGTKLTVLG ?
Return: 2

Enquiry: So what does the record say about Affinity change for Ame55 mutant, light chain 51G (antibody, V domains shown, Mutant of Ame55) VH: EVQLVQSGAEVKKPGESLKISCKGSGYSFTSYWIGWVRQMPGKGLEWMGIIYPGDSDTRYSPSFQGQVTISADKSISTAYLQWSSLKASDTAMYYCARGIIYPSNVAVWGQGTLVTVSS VL: SYELTQPPSVSVAPGQTARITCSGDALGDKYASWYQQKPGQAPVLVIYEDGKRPSGIPERFSGSNSGNTATLTISGTQAEDEADYYCSVWDGDWGMPVFGGGTKLTVLG ?
Return: 1
